target system: human ApoC3 (huApoC3), native protein purified from human serum (human, UniProt P02656 21-99); further: test concentration or dose not given here
Sequence (P02656 21-99): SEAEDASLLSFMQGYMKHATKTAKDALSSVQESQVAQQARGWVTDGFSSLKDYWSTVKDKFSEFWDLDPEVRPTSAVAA
assay procedure: cell-based or functional assay
measured attribute: attenuation of the ability of ApoC3 to inhibit VLDL uptake by HepG2 cells

The following binders have reported results that may help.
12E12 scFv-Fc (Fc fusion) VH: EVQLVESGGDLVQPGGSLRVSCAASGLTFSNIYMSWVRQAPGKGLEWVSAINTAGTVTYYADSVKGRFTISRDNAKNTLYLQMNSLKPEDTAHYYCTTGEVDWGKGTLVTVSS VL: QTVVTQEPSLSVSPGGTVTLTCGLSSGSVTSVTYPGWYQQKPGQAPRTLIYNTNSRFSGVPNRFSGSISGNKAALTITGALPEDEADYYCSVYIGGGIYPAVFGGGTHLTVL: ~40%
13C7 scFv-Fc (Fc fusion) VH: QLQLVESGGGLVQPGGSLRLSCAASGGTFSRYYMSWVRQAPGKGLEWVSSIYKDGSNTYYADSVKGRFTISRDNAKNTLYLQMNSLKSEDTAVYYCAKALRAEYDYWGQGTQVTVSS VL: NFMLTQPPSVSGTLGKTVTISCAGTSSDIGGYNYVAWYQQLPGTAPKLLISEVNKRASGIPDRFSGSKSGNTASLSISGLQSEDEADYYCASYRSSNSYVFGGGTKLTVL: ~95%
14C7 scFv-Fc (Fc fusion) VH: QVQVQESGPGLVKPSQTLSLTCTVSGGSITTNSYYWSWIRQPPGKGLEWMGAIDYSGDTYYSPSLKSRTSISRDTSKNQFTLQLTSVTPEDTAVYYCVSRIPTGEYWGQGTQVTVSS VL: QTVVTQEPSLSVSPGGTVTLTCGLNSGSVTSSNYPDWYQQTPGQAPRLLIYNTNSRHSGVPSRFSGSISGNKAALTITGAQPEDEADYYCALYMGSDSVVFGGGTHLTVL: ~100%
8H4 scFv-Fc (Fc fusion, scFv-Fc format) VH: ELQLVESGGGLVQPGRSLRLSCAASGFTFSSYSMRWVRQTPGKGLEWVTSINSDGGSTKYSDSVKGRFTISRDNAKNTLYLQMNNVKPEDTAIYYCAIQGYTDWGQGTQVTVSS VL: DVVLTQTPGSLSVVPGESASISCKVSQSLVHSDGKTYLYWLLQKPGQSPQRLIYQVSNRDSGVPDRFTGSGSGTDFTLKISGVKAEDAGVYYCAQGTYNPYTFGSGTRLEIK: ~70%
13G7 scFv-Fc (Fc fusion) VH: QVQLQESGPGLVKPSQTLSLTCTVSGGSISTTAPAWGWIRQSPGKGLDWMAVIAFDGSAYYSPSLKSRTLISRDTSKNQFSLQLSSVTPEDTAVYYCARLGGRNYPPYVELWGQGTLVTVSS VL: QPVLTQPPALSVTLGQTAKITCQGGSLRVSYAHWYQQKPGQAPVLVSYDDDSRPSGIPERFSGSGSGATATLTISGAQAEDEGDYYCQSADSSGDNWVFGGGTHLTVL: ~100%
12D1 scFv-Fc (Fc fusion) VH: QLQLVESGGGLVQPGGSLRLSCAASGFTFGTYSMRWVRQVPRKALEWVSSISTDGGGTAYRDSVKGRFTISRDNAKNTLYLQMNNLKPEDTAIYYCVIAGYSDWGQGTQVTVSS VL: SALDVVLTQTPGSLSVVPGESASISCKTSQSLTHSDGKTYLYWLLQKPGQSPQRLIYQVSNRGSGVPDRFTGSGSGTDFTLKISGVKAEDAGMYYCAQATYYPHTFGSGSRLEIER: ~60%
6A6 scFv-Fc (Fc fusion, scFv-Fc format) VH: EVQLVESGGGLVQPGGSLRLSCAASGFTFSSYAGRWVRQVPGKGLEWVSSINAGGGSTSYADSVKGRFTISRDNAKNTLYLQMNSLKPEDTAKYYCTQNSYRYWGQGTRVAVSS VL: DVVLTQTPGSLSVVPGESASISCKASQSLIHTDGKTYLYWLLQKPGQRPQLLIYQVSSHESGVPDRFTGSGSGTDFTLKISGVKAEDAGVYYCAQATYNPRTFGQGTKLEIK: ~75%
10B6 scFv-Fc (Fc fusion, scFv-Fc format) VH: EVQLVESGGGLVQPGGSLRLSCAASGFTFSSYAMRWVRQAPGKGLEWISSINIDGGSTRYTDSVQGRFTVSRDNAKNTLYLQMNNLKPEDTGIYYCTIQGYIYWGQGTQVTVSS VL: ATMLTQSPGSLSIVPGESASISCKASQSLVHSNGVIYFYWLLQKPGQSPQRLIYQVSNRDSGVPDRFTGSGSGTDFTLKISGVKAEDAGVYYCAQGTYYPHSFGSGTRLQIK: ~70%
14C4 scFv-Fc (Fc fusion) VH: QLQLVESGGGLVQPGGSLRLSCAASGFTFGNYDMSWVRQAPGKGPEWVSVINSDGDGTYYVDSVKGRFTISRDNAKNTLYLQMNSLKPEDRAVYYCAIANLGLWGQGTLVTVSS VL: ATMLTQSPGSLSVVPGESASISCKATQSLVHSDGKTYLSWLLQKPGQSPQRLIYQVSNRGSGVPDRFTGSGSGTDFTLKISGVKAEDAGVYYCAQAPYWTFGQGTKLEIK: ~60%

Now consider the entry below.
Problem: Which attenuation of the ability of ApoC3 to inhibit VLDL uptake by HepG2 cells value is on record for 8F4 scFv-Fc (Fc fusion, scFv-Fc format) VH: QLQLVESGGGLVQPGGSLRLSCAASGFAFSSYSMYWVRQAPGKGLERVAAIKTDGGSTNYADSVKGRFTVSRDNAKNTLYLQMNSLKSEDTAVYYCVIQGYGTWGQGTQVTVSS VL: DLVLTQIPGSLSVVPGESASISCKASQSLVHSDGKTYLYWLLQKPGQSPQRLIYQVSNRGSGVPDRFTGSGSGTDFTLKISGVEAEDAGVYYCAQATYYGHSFGSGTRLEIK ?
Solution: ~75%
